assay.protocol: activity coefficient (dimensionless); of the first substance listed, at infinite dilution; xn = mol fraction of the nth substance listed
condition.summary: 353 K; 101.33 kPa; Liquid; Chromatography; x1 = 0
metric: activity coefficient
// keep it numeric: no unit symbol after the value

Cc1ccccc1C [1,2-dimethylbenzene] + C[n+]1ccn(CCO)c1.O=S(=O)([O-])C(F)(F)C(F)(F)C(F)(F)C(F)(F)F	6.52

INPUT: Which value of activity coefficient has been reported for CC1CCCCC1 [methylcyclohexane] + C[n+]1ccn(CCO)c1.O=S(=O)([O-])C(F)(F)C(F)(F)C(F)(F)C(F)(F)F in the records?
OUTPUT: 12.3

INPUT: Which value of activity coefficient has been reported for C=CCCCCCCCC [1-decene] + C[n+]1ccn(CCO)c1.O=S(=O)([O-])C(F)(F)C(F)(F)C(F)(F)C(F)(F)F in the records?
OUTPUT: 59.2

INPUT: Which value of activity coefficient has been reported for C#CCCCC [1-hexyne] + C[n+]1ccn(CCO)c1.O=S(=O)([O-])C(F)(F)C(F)(F)C(F)(F)C(F)(F)F in the records?
OUTPUT: 5.18

INPUT: Which value of activity coefficient has been reported for Cc1ccccc1 [toluene] + C[n+]1ccn(CCO)c1.O=S(=O)([O-])C(F)(F)C(F)(F)C(F)(F)C(F)(F)F in the records?
OUTPUT: 4.44

INPUT: Which value of activity coefficient has been reported for Cc1ccc(C)cc1 [1,4-dimethylbenzene] + C[n+]1ccn(CCO)c1.O=S(=O)([O-])C(F)(F)C(F)(F)C(F)(F)C(F)(F)F in the records?
OUTPUT: 7.59

INPUT: Which value of activity coefficient has been reported for ClCCl [dichloromethane] + C[n+]1ccn(CCO)c1.O=S(=O)([O-])C(F)(F)C(F)(F)C(F)(F)C(F)(F)F in the records?
OUTPUT: 1.45

----------
assay.protocol: activity coefficient (dimensionless); of the first substance listed, at infinite dilution; xn = mol fraction of the nth substance listed
condition.summary: 353 K; 101.33 kPa; Liquid; Chromatography; x1 = 0
Please enter True where activity coefficient is greater than or equal to 2, and False where it is lower.

Study these solved cases before continuing.
C#CCCCCC [1-heptyne] + C[n+]1ccn(CCO)c1.O=S(=O)([O-])C(F)(F)C(F)(F)C(F)(F)C(F)(F)F	True
C1CCOC1 [tetrahydrofuran] + C[n+]1ccn(CCO)c1.O=S(=O)([O-])C(F)(F)C(F)(F)C(F)(F)C(F)(F)F	False
C#CCCCCCC [1-octyne] + C[n+]1ccn(CCO)c1.O=S(=O)([O-])C(F)(F)C(F)(F)C(F)(F)C(F)(F)F	True
c1ccccc1 [benzene] + C[n+]1ccn(CCO)c1.O=S(=O)([O-])C(F)(F)C(F)(F)C(F)(F)C(F)(F)F	True
CCCCCCCC [octane] + C[n+]1ccn(CCO)c1.O=S(=O)([O-])C(F)(F)C(F)(F)C(F)(F)C(F)(F)F	True
CCCO [propan-1-ol] + C[n+]1ccn(CCO)c1.O=S(=O)([O-])C(F)(F)C(F)(F)C(F)(F)C(F)(F)F	False

INPUT: Could you please find out whether Cc1cccc(C)c1 [1,3-dimethylbenzene] + C[n+]1ccn(CCO)c1.O=S(=O)([O-])C(F)(F)C(F)(F)C(F)(F)C(F)(F)F has activity coefficient that meets 2 or exceeds it?
OUTPUT: True

INPUT: Could you please find out whether C=CCCCCCC [oct-1-ene] + C[n+]1ccn(CCO)c1.O=S(=O)([O-])C(F)(F)C(F)(F)C(F)(F)C(F)(F)F has activity coefficient that meets 2 or exceeds it?
OUTPUT: True

INPUT: Could you please find out whether C1COCCO1 [1,4-dioxane] + C[n+]1ccn(CCO)c1.O=S(=O)([O-])C(F)(F)C(F)(F)C(F)(F)C(F)(F)F has activity coefficient that meets 2 or exceeds it?
OUTPUT: False

INPUT: Could you please find out whether CO [methanol] + C[n+]1ccn(CCO)c1.O=S(=O)([O-])C(F)(F)C(F)(F)C(F)(F)C(F)(F)F has activity coefficient that meets 2 or exceeds it?
OUTPUT: False

----------
assay.protocol: activity coefficient (dimensionless); of the first substance listed, at infinite dilution; xn = mol fraction of the nth substance listed
condition.summary: 353 K; 101.33 kPa; Liquid; Chromatography; x1 = 0
metric: activity coefficient

C#CCCC [1-pentyne] + C[n+]1ccn(CCO)c1.O=S(=O)([O-])C(F)(F)C(F)(F)C(F)(F)C(F)(F)F	2.59
CCCCCCCCC [nonane] + C[n+]1ccn(CCO)c1.O=S(=O)([O-])C(F)(F)C(F)(F)C(F)(F)C(F)(F)F	54.1
CCCCCCC [heptane] + C[n+]1ccn(CCO)c1.O=S(=O)([O-])C(F)(F)C(F)(F)C(F)(F)C(F)(F)F	13.9

INPUT: Which value of activity coefficient has been reported for CCO [ethanol] + C[n+]1ccn(CCO)c1.O=S(=O)([O-])C(F)(F)C(F)(F)C(F)(F)C(F)(F)F in the records?
OUTPUT: 1.14

INPUT: Which value of activity coefficient has been reported for C=CCCCC [hex-1-ene] + C[n+]1ccn(CCO)c1.O=S(=O)([O-])C(F)(F)C(F)(F)C(F)(F)C(F)(F)F in the records?
OUTPUT: 4.97

INPUT: Which value of activity coefficient has been reported for CCCCCC [hexane] + C[n+]1ccn(CCO)c1.O=S(=O)([O-])C(F)(F)C(F)(F)C(F)(F)C(F)(F)F in the records?
OUTPUT: 6.31

----------
// values below are reported activity coefficient
assay.protocol: activity coefficient (dimensionless); of the first substance listed, at infinite dilution; xn = mol fraction of the nth substance listed
condition.summary: 303 K; 101.33 kPa; Liquid; Chromatography; x1 = 0
// keep it numeric: no unit symbol after the value

C1CCOC1 [tetrahydrofuran] + C[n+]1ccn(CCO)c1.O=S(=O)([O-])C(F)(F)C(F)(F)C(F)(F)C(F)(F)F	1.73
C=CCCCCCCCC [1-decene] + C[n+]1ccn(CCO)c1.O=S(=O)([O-])C(F)(F)C(F)(F)C(F)(F)C(F)(F)F	122
CCCCCCCC [octane] + C[n+]1ccn(CCO)c1.O=S(=O)([O-])C(F)(F)C(F)(F)C(F)(F)C(F)(F)F	99
CCCCCCCCC [nonane] + C[n+]1ccn(CCO)c1.O=S(=O)([O-])C(F)(F)C(F)(F)C(F)(F)C(F)(F)F	157

Lab note: next compound to report on.
INPUT: Which value of activity coefficient has been reported for ClCCl [dichloromethane] + C[n+]1ccn(CCO)c1.O=S(=O)([O-])C(F)(F)C(F)(F)C(F)(F)C(F)(F)F in the records?
OUTPUT: 2.14

----------
assay.protocol: activity coefficient (dimensionless); of the first substance listed, at infinite dilution; xn = mol fraction of the nth substance listed
condition.summary: 323 K; 101.33 kPa; Liquid; Chromatography; x1 = 0
// values below are reported activity coefficient

Illustrative cases are given below, each with its answer.
CCc1ccccc1 [ethylbenzene] + C[n+]1ccn(CCO)c1.O=S(=O)([O-])C(F)(F)C(F)(F)C(F)(F)C(F)(F)F	10.1
Cc1ccc(C)cc1 [1,4-dimethylbenzene] + C[n+]1ccn(CCO)c1.O=S(=O)([O-])C(F)(F)C(F)(F)C(F)(F)C(F)(F)F	9.88
C#CCCCC [1-hexyne] + C[n+]1ccn(CCO)c1.O=S(=O)([O-])C(F)(F)C(F)(F)C(F)(F)C(F)(F)F	7.92

Lab note: next molecule to report on.
INPUT: Which value of activity coefficient has been reported for CC1CCCCC1 [methylcyclohexane] + C[n+]1ccn(CCO)c1.O=S(=O)([O-])C(F)(F)C(F)(F)C(F)(F)C(F)(F)F in the records?
OUTPUT: 24.3

----------
assay.protocol: activity coefficient (dimensionless); of the first substance listed, at infinite dilution; xn = mol fraction of the nth substance listed
condition.summary: 333 K; 101.33 kPa; Liquid; Chromatography; x1 = 0
// values below are reported activity coefficient
// keep it numeric: no unit symbol after the value

Illustrative cases are given below, each with its answer.
CC(C)=O [acetone] + C[n+]1ccn(CCO)c1.O=S(=O)([O-])C(F)(F)C(F)(F)C(F)(F)C(F)(F)F	0.88
CCCCC [pentane] + C[n+]1ccn(CCO)c1.O=S(=O)([O-])C(F)(F)C(F)(F)C(F)(F)C(F)(F)F	4.34
CCc1ccccc1 [ethylbenzene] + C[n+]1ccn(CCO)c1.O=S(=O)([O-])C(F)(F)C(F)(F)C(F)(F)C(F)(F)F	8.82
C#CCCC [1-pentyne] + C[n+]1ccn(CCO)c1.O=S(=O)([O-])C(F)(F)C(F)(F)C(F)(F)C(F)(F)F	3.68
C=CCCCCCCCC [1-decene] + C[n+]1ccn(CCO)c1.O=S(=O)([O-])C(F)(F)C(F)(F)C(F)(F)C(F)(F)F	79.6
Cc1ccccc1C [1,2-dimethylbenzene] + C[n+]1ccn(CCO)c1.O=S(=O)([O-])C(F)(F)C(F)(F)C(F)(F)C(F)(F)F	7.81

INPUT: Which value of activity coefficient has been reported for C#CCCCCC [1-heptyne] + C[n+]1ccn(CCO)c1.O=S(=O)([O-])C(F)(F)C(F)(F)C(F)(F)C(F)(F)F in the records?
OUTPUT: 11.9

INPUT: Which value of activity coefficient has been reported for C1CCCCC1 [cyclohexane] + C[n+]1ccn(CCO)c1.O=S(=O)([O-])C(F)(F)C(F)(F)C(F)(F)C(F)(F)F in the records?
OUTPUT: 11.7

INPUT: Which value of activity coefficient has been reported for CO [methanol] + C[n+]1ccn(CCO)c1.O=S(=O)([O-])C(F)(F)C(F)(F)C(F)(F)C(F)(F)F in the records?
OUTPUT: 0.9

INPUT: Which value of activity coefficient has been reported for ClCCl [dichloromethane] + C[n+]1ccn(CCO)c1.O=S(=O)([O-])C(F)(F)C(F)(F)C(F)(F)C(F)(F)F in the records?
OUTPUT: 1.69

INPUT: Which value of activity coefficient has been reported for C=CCCCCCC [oct-1-ene] + C[n+]1ccn(CCO)c1.O=S(=O)([O-])C(F)(F)C(F)(F)C(F)(F)C(F)(F)F in the records?
OUTPUT: 29.5

INPUT: Which value of activity coefficient has been reported for CCCCCC [hexane] + C[n+]1ccn(CCO)c1.O=S(=O)([O-])C(F)(F)C(F)(F)C(F)(F)C(F)(F)F in the records?
OUTPUT: 10.6

INPUT: Which value of activity coefficient has been reported for CCCCCCC [heptane] + C[n+]1ccn(CCO)c1.O=S(=O)([O-])C(F)(F)C(F)(F)C(F)(F)C(F)(F)F in the records?
OUTPUT: 23.6
